test: Inhibition of calmodulin-dependent Phosphodiesterase
pIC50: −log10 of the molar value.
measured.quantity: pIC50

Here's what some known entries look like.
CCCCc1ccc(/C(=C(\CC)c2ccccc2)c2ccc(OCCN(C)C)cc2)cc1 5.43
C#Cc1ccc(/C(=C(\CC)c2ccccc2)c2ccc(OCCN3CCCC3)cc2)cc1 5.48

I = CCCCc1ccc(/C(=C(\CC)c2ccccc2)c2ccc(OCCN3CCCC3)cc2)cc1
II = C#Cc1ccc(/C(=C(\CC)c2ccccc2)c2ccc(OCCN(C)C)cc2)cc1
III = CC/C(=C(\c1ccc(I)cc1)c1ccc(OCCCN2CCCC2)cc1)c1ccccc1
Incoming: Please list these in order of increasing pIC50. Thank you! Answer by naming the labels in the order asked.
Outgoing: II, I, III
(II: 5.34, I: 5.74, III: 5.96)

----------
assay: Inhibition of calmodulin-dependent Phosphodiesterase
measured.quantity: IC50 (nM)

1 = CC/C(=C(\c1ccc(I)cc1)c1ccc(OCCN(C)C)cc1)c1ccccc1
2 = CC/C(=C(\c1ccc(I)cc1)c1ccc(OCCN2CCCC2)cc1)c1ccccc1 [IDOXIFENE]
3 = CC/C(=C(\c1ccc(I)cc1)c1ccc(OCCCCN2CCCC2)cc1)c1ccccc1
Incoming: Lab note: arrange the 3 compounds above from lowest to highest IC50. Answer by naming the labels in the order asked.
Outgoing: 3, 2, 1
(3: 1000 nM, 2: 1500 nM, 1: 2300 nM)

----------
assay: Inhibition of calmodulin-dependent Phosphodiesterase
measured.quantity: IC50 (nM)

CC/C(=C(\c1ccc(I)cc1)c1ccc(OCCCCN(C)C)cc1)c1ccccc1 1300
CC/C(=C(\c1ccc(I)cc1)c1ccc(OCCCN(C)C)cc1)c1ccccc1 1400
CC/C(=C(\c1ccc(O)cc1)c1ccc(OCCN(C)C)cc1)c1ccccc1 19000
